- MEASUREMENT_TARGET: Oxysterols receptor LXR-alpha (Homo sapiens) (UniProt Q13133)
- Sequence (Q13133 whole entry, looked up): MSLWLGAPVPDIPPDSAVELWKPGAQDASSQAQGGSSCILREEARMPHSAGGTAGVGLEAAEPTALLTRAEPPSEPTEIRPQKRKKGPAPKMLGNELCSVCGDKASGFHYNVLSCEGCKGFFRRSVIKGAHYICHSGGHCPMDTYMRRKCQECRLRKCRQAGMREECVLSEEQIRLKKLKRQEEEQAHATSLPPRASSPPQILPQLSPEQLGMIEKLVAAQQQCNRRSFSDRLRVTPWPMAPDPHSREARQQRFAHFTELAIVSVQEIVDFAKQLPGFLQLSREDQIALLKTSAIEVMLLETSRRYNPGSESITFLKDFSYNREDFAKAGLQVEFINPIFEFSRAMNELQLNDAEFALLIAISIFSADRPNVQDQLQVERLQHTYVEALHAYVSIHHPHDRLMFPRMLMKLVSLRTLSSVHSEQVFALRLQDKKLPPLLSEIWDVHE
- PROCEDURE_DETAILS: ATG_LXRa_TRANS: Attagene TRANS-FACTORIAL HepG2 Assay for human Liver X Receptor alpha (LXRa) (AID 2282980)
- CONDITION_PARAMETERS: HepG2 Attagene TRANS reporter, LXRa transactivation
Records with an inconclusive call do not appear. Active and inactive are the calls of the source. Rule for the calls: active = hit-call score of the fitted dose curve at least 0.9, where 1 is the maximum; inconclusive = response in the unintended direction; inactive = score below 0.9.

| SMILES_REPRESENTATION | outcome |
| --- | --- |
| CCCCCCCCCCCC[N+](C)(C)C | inactive |
| Cc1oc2c(NC(=O)c3c(Cl)cccc3Cl)cccc2c1C(C)(C)O | inactive |
| CN1C(=O)CC[C@H]1c1cccnc1 | inactive |

====

- PROCEDURE_DETAILS: BSK_3C_uPAR: BioMAP Diversity Plus: 3C Assay for Urokinase-type plasminogen activator receptor (uPAR) Biomarker Activity (AID 2282998)
- CONDITION_PARAMETERS: BioMAP 3C HUVEC, uPAR biomarker ELISA; actives raise or lower the signal
Activity calls are given as the source filed them. Rule for the calls: active = hit-call score of the fitted dose curve at least 0.9, where 1 is the maximum; inactive = score below 0.9.
Please reply with one of these outcomes: active, inactive

Input: Per the assay record, what outcome was assigned to O=c1c(-c2ccc(O)cc2)coc2cc(O)cc(O)c12 ?
Output: active

Input: Per the assay record, what outcome was assigned to CC(C)(c1cc(Br)c(O)c(Br)c1)c1cc(Br)c(O)c(Br)c1 ?
Output: active

Input: Per the assay record, what outcome was assigned to CCCOC(=O)c1cc(O)c(O)c(O)c1 ?
Output: inactive

Input: Per the assay record, what outcome was assigned to Clc1cc(Cl)c2c(c1)N=C1CCCCCN1C2 ?
Output: inactive

Input: Per the assay record, what outcome was assigned to c1ccc2ccccc2c1 ?
Output: inactive

Input: Per the assay record, what outcome was assigned to CC(C)(C)c1cc(/C=C2\SC(N)=NC2=O)cc(C(C)(C)C)c1O ?
Output: active

Input: Per the assay record, what outcome was assigned to CN1C(=O)CC[C@H]1c1cccnc1 ?
Output: inactive

Input: Per the assay record, what outcome was assigned to CCOC(=O)O[C@H](C)OC(=O)c1ccc2c(c1)cc(C(=O)NC1CCN(C(C)C)CC1)n2Cc1cc(-c2ccc(Cl)s2)on1 ?
Output: active

Input: Per the assay record, what outcome was assigned to Cc1oc2c(NC(=O)c3c(Cl)cccc3Cl)cccc2c1C(C)(C)O ?
Output: active

Input: Per the assay record, what outcome was assigned to CCCCCCCCCCCO ?
Output: active

Input: Per the assay record, what outcome was assigned to CC(O)CC(C)(C)O (configuration not stated) ?
Output: inactive

Input: Per the assay record, what outcome was assigned to CN1C(=O)N(c2ccccc2Br)Cc2cnc(Nc3ccc4c(c3)OCC(CO)O4)nc21 (configuration not stated) ?
Output: active

====

- Read-out: succinate dehydrogenase complex iron sulfur subunit B (SDHB), SDHB (gene 6390)
- PROCEDURE_DETAILS: LTEA_HepaRG_SDHB: Life Technologies and Expression Analysis (LTEA) Assay for succinate dehydrogenase complex iron sulfur subunit B (SDHB) using HepaRG (AID 2283528)
- CONDITION_PARAMETERS: mRNA level, 48 h; actives raise or lower the signal
The source made the active and inactive calls. Rule for the calls: active = hit-call score of the fitted dose curve at least 0.9, where 1 is the maximum; inactive = score below 0.9.
Please reply with one of these outcomes: class 1 (active), class 0 (inactive)

Input: Per the assay record, what outcome was assigned to c1ccc2ccccc2c1 ?
Output: class 0

Input: Per the assay record, what outcome was assigned to O=c1[nH]sc2ccccc12 ?
Output: class 0

Input: Per the assay record, what outcome was assigned to O=C(OCCCCCCOC(=O)c1ccccc1)c1ccccc1 ?
Output: class 0

Input: Per the assay record, what outcome was assigned to Cc1cc(F)ccc1-c1cc(N2CC[C@@H](O)[C@H]2CO)ncc1N(C)C(=O)C(C)(C)c1cc(C(F)(F)F)cc(C(F)(F)F)c1 ?
Output: class 1

Input: Per the assay record, what outcome was assigned to CN(C[C@@H](CC[N+]12CCC(C3CCCCC3)(CC1)CC2)c1ccc(Cl)c(Cl)c1)C(=O)c1cc(C(F)(F)F)cc(C(F)(F)F)c1 ?
Output: class 1

Input: Per the assay record, what outcome was assigned to CCN(Cc1cccc(S(=O)(=O)O)c1)c1ccc(C(=C2C=CC(=[N+](CC)Cc3cccc(S(=O)(=O)O)c3)C=C2)c2ccccc2S(=O)(=O)[O-])cc1 ?
Output: class 0

Input: Per the assay record, what outcome was assigned to CCCCOC(=O)c1ccc(O)cc1 ?
Output: class 0

Input: Per the assay record, what outcome was assigned to Cc1cc2c(cc1C(F)(F)F)N(C(=O)Nc1ccc(Oc3cccnc3C)nc1)CC2 ?
Output: class 0

Input: Per the assay record, what outcome was assigned to c1ccc2n[nH]nc2c1 ?
Output: class 0

Input: Per the assay record, what outcome was assigned to Cc1oc2c(NC(=O)c3c(Cl)cccc3Cl)cccc2c1C(C)(C)O ?
Output: class 0

====

- PROCEDURE_DETAILS: ATG_NF_kB_CIS: Attagene CIS-FACTORIAL HepG2 Assay for human Nuclear Factor Kappa B (NF-kB) (AID 2282991)
- CONDITION_PARAMETERS: HepG2 Attagene cis-factorial NF-kB reporter mRNA; actives raise or lower the signal
Active and inactive are the calls of the source. How the source made its calls: active means hit-call score of the fitted dose curve at least 0.9, where 1 is the maximum; inactive means score below 0.9.
Please reply with one of these outcomes: TRUE = active, FALSE = inactive

Input: Per the assay record, what outcome was assigned to Cc1cc2c(cc1C(F)(F)F)N(C(=O)Nc1ccc(Oc3cccnc3C)nc1)CC2 ?
Output: FALSE

Input: Per the assay record, what outcome was assigned to CN1C(=O)CC[C@H]1c1cccnc1 ?
Output: FALSE

Input: Per the assay record, what outcome was assigned to CC(C)(c1cc(Br)c(O)c(Br)c1)c1cc(Br)c(O)c(Br)c1 ?
Output: FALSE

Input: Per the assay record, what outcome was assigned to CCCCCCCCN(C)CCCCCCCC ?
Output: FALSE

Input: Per the assay record, what outcome was assigned to CCN(CC)C(=O)c1cc(S(=O)(=O)Cc2ccccc2)c(N2CCC(c3ccccc3)CC2)cc1N(CC)CCN(C)C ?
Output: FALSE

Input: Per the assay record, what outcome was assigned to Clc1cc(Cl)c2c(c1)N=C1CCCCCN1C2 ?
Output: TRUE

Input: Per the assay record, what outcome was assigned to c1ccc2n[nH]nc2c1 ?
Output: FALSE

Input: Per the assay record, what outcome was assigned to CC(C)(O)c1ccc(CNC(=O)c2cccnc2Oc2ccc3nonc3c2)cc1 ?
Output: FALSE

Input: Per the assay record, what outcome was assigned to CC[C@H](NC(=O)c1cc(F)ccc1NS(=O)(=O)c1cccc2cccnc12)c1ccccc1 ?
Output: FALSE

Input: Per the assay record, what outcome was assigned to O=C(OCCCCCCOC(=O)c1ccccc1)c1ccccc1 ?
Output: FALSE

Input: Per the assay record, what outcome was assigned to Cc1cccc2ccccc12 ?
Output: FALSE

Input: Per the assay record, what outcome was assigned to C[C@]12CC[C@@H]3c4ccc(O)cc4CC[C@H]3[C@@H]1CCC2=O ?
Output: FALSE

Input: Per the assay record, what outcome was assigned to COCC(C)OCC(C)OCC(C)O (stereo not given) ?
Output: FALSE

Input: Per the assay record, what outcome was assigned to O=c1[nH]sc2ccccc12 ?
Output: FALSE

Input: Per the assay record, what outcome was assigned to COc1ccc2cc(S(=O)(=O)N[C@H](CC(=O)N[C@H](Cc3ccc(CN4[C@H](C)CCC[C@@H]4C)cc3)C(=O)N(C)C(C)C)c3ccc4c(c3)OCO4)ccc2c1 ?
Output: FALSE

Input: Per the assay record, what outcome was assigned to CCCCCCCC[Si](OCC)(OCC)OCC ?
Output: FALSE

Input: Per the assay record, what outcome was assigned to CCCCCCCCCCCO ?
Output: FALSE

Input: Per the assay record, what outcome was assigned to O=C(O)c1ccccc1C(=O)OCc1ccccc1 ?
Output: FALSE

Input: Per the assay record, what outcome was assigned to O=c1ccc2ccccc2o1 ?
Output: FALSE

Input: Per the assay record, what outcome was assigned to CC(O)CC(C)(C)O (stereo not given) ?
Output: FALSE

Input: Per the assay record, what outcome was assigned to CCCCCCCCOc1ccc(C(=O)c2ccccc2)c(O)c1 ?
Output: FALSE

Input: Per the assay record, what outcome was assigned to Cc1ccc2oc(CN(Cc3ccccc3)C(=O)Nc3c(F)cc(F)cc3F)c(-c3ccc(Cl)cc3)c2c1 ?
Output: FALSE

Input: Per the assay record, what outcome was assigned to O=C1c2ccccc2C(=O)N1CCc1noc(-c2ccc(CN3CCCCCC3)s2)n1 ?
Output: FALSE

Input: Per the assay record, what outcome was assigned to CCCCCCCCOC(=O)c1cc(O)c(O)c(O)c1 ?
Output: FALSE

Input: Per the assay record, what outcome was assigned to Cc1c2ccccc2c(C)c2c1ccc1ccccc12 ?
Output: FALSE

Input: Per the assay record, what outcome was assigned to CCN(Cc1cccc(S(=O)(=O)O)c1)c1ccc(C(=C2C=CC(=[N+](CC)Cc3cccc(S(=O)(=O)O)c3)C=C2)c2ccccc2S(=O)(=O)[O-])cc1 ?
Output: FALSE

Input: Per the assay record, what outcome was assigned to CCCCCCCCCCCC[N+](C)(C)C ?
Output: FALSE

Input: Per the assay record, what outcome was assigned to Oc1ccc2ccccc2c1 ?
Output: FALSE

Input: Per the assay record, what outcome was assigned to CC(C)(C)c1cc(/C=C2\SC(N)=NC2=O)cc(C(C)(C)C)c1O ?
Output: FALSE

Input: Per the assay record, what outcome was assigned to CCCCOC(=O)CC(CC(=O)OCCCC)(OC(C)=O)C(=O)OCCCC ?
Output: FALSE

Input: Per the assay record, what outcome was assigned to c1ccc(C[n+]2cccc3ccccc32)cc1 ?
Output: FALSE

Input: Per the assay record, what outcome was assigned to O=C=NCCCCCCN=C=O ?
Output: FALSE

Input: Per the assay record, what outcome was assigned to CCN(Cc1cccnc1)C(=O)c1cccc(Cl)c1[C@]1(C)C(=O)N(Cc2ccc(OC)cc2OC)c2ccc(Cl)cc21 ?
Output: FALSE

Input: Per the assay record, what outcome was assigned to CN(C[C@@H](CC[N+]12CCC(C3CCCCC3)(CC1)CC2)c1ccc(Cl)c(Cl)c1)C(=O)c1cc(C(F)(F)F)cc(C(F)(F)F)c1 ?
Output: FALSE

Input: Per the assay record, what outcome was assigned to CN(C)C(=O)C1(N2CCCCC2)CCN(CC[C@@]2(c3ccc(Cl)c(Cl)c3)CN(C(=O)c3ccccc3)CCO2)CC1 ?
Output: TRUE

Recorded values, source PubChem BioAssay (EPA / NIEHS).
